Entries and their pKb
target: Alpha-2C adrenergic receptor (Homo sapiens) (UniProt P18825); assay: Antagonist activity at human Alpha-2C adrenergic receptor expressed in CHO cells assessed as inhibition of clonidine-induced extracellular acidification after 30 mins by cytosensor microphysiometry; format: functional, cell-based

compound	value
c1ccc([C@H]2CO[C@H](C3=NCCN3)CO2)cc1	< 5
c1ccc(C2COC(C3=NCCN3)CO2)cc1 (racemic)	< 5
c1ccc(C2(c3ccccc3)COCC(C3=NCCN3)O2)cc1 (centres undefined)	< 5
c1ccc([C@@H]2CO[C@@H](C3=NCCN3)CO2)cc1	< 5
c1ccc([C@@H]2CO[C@H](C3=NCCN3)CO2)cc1 (relative stereo)	< 5
c1ccc([C@H]2COC[C@@H](C3=NCCN3)O2)cc1 (relative stereo)	< 5
c1ccc(C2(c3ccccc3)COC(C3=NCCN3)CO2)cc1 (centres undefined)	< 5
c1ccc([C@@H]2COC[C@@H](C3=NCCN3)O2)cc1 (relative stereo)	< 5

We now examine a further compound.
Problem: Item under review: c1ccc2c(c1)OCC(C1=NCCN1)O2 (centres undefined) . Reported pKb?
Result: 7.92

----------
# pKb per entry
target: Alpha-2A adrenergic receptor (Homo sapiens) (UniProt P08913); assay: Antagonist activity at human alpha2A adrenergic receptor expressed in CHO cells assessed as inhibition of clonidine-induced extracellular acidification after 30 mins by cytosensor microphysiometry; assay type: functional, cell-based
Sequence (P08913 whole entry): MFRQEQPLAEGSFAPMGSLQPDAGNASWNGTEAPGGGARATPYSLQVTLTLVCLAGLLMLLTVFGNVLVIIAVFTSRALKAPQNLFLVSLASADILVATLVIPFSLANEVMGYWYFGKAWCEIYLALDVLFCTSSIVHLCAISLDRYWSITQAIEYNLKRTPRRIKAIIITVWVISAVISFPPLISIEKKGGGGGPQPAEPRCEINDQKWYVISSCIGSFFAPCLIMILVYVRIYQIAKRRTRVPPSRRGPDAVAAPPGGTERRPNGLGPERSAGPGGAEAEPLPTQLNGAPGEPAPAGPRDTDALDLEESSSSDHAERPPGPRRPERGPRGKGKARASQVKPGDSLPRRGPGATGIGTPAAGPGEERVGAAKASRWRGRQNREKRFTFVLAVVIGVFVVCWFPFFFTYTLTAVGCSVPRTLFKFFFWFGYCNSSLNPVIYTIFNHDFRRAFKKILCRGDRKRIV
Please respond with just the number, no unit label.

molecule	pKb
c1ccc([C@@H]2CO[C@@H](C3=NCCN3)CO2)cc1	6.4
c1ccc(C2(c3ccccc3)COCC(C3=NCCN3)O2)cc1 (centres undefined)	5.37
c1ccc(C2COC(C3=NCCN3)CO2)cc1 (racemic)	6.4

# ---- query molecule ----
Problem: // pKb lookup, key: c1ccc2c(c1)OCC(C1=NCCN1)O2 (centres undefined)
Result: 7.73

----------
biological target: Alpha-2B adrenergic receptor (Homo sapiens) (UniProt P18089); test: Antagonist activity at human alpha2B adrenergic receptor expressed in CHO cells assessed as inhibition of clonidine-induced extracellular acidification after 30 mins by cytosensor microphysiometry; format: functional, cell-based
Sequence (P18089 whole entry): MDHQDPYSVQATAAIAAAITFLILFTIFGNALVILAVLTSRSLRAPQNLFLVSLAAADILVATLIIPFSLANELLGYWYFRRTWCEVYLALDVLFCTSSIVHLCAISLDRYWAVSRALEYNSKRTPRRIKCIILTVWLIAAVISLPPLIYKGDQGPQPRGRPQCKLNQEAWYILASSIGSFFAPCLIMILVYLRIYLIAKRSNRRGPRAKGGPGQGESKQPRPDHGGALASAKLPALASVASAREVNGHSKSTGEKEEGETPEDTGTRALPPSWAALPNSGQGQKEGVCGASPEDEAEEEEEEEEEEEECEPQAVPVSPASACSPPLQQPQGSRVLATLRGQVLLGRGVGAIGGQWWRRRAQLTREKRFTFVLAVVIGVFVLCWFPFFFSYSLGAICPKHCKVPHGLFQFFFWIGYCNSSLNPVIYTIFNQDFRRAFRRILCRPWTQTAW
measured-parameter: pKb

Worked examples, 4 molecules total:
molecule	pKb
c1ccc([C@@H]2COC[C@@H](C3=NCCN3)O2)cc1 (relative stereo)	< 5
c1ccc(C2(c3ccccc3)COCC(C3=NCCN3)O2)cc1 (centres undefined)	< 5
c1ccc([C@@H]2CO[C@@H](C3=NCCN3)CO2)cc1	< 5
c1ccc(C2COC(C3=NCCN3)CO2)cc1 (racemic)	< 5

Problem: # pKb lookup, item c1ccc([C@@H]2CO[C@H](C3=NCCN3)CO2)cc1 (relative stereo)
Result: 5.5

Problem: Now try c1ccc([C@H]2CO[C@H](C3=NCCN3)CO2)cc1 .
Result: < 5

Problem: Now try c1ccc(C2(c3ccccc3)COC(C3=NCCN3)CO2)cc1 (centres undefined) .
Result: < 5

Problem: Follow-up item: c1ccc([C@H]2COC[C@@H](C3=NCCN3)O2)cc1 (relative stereo)
Result: 5.18

Problem: Now this one: c1ccc2c(c1)OCC(C1=NCCN1)O2 (centres undefined)
Result: 7.16

----------
target: Alpha-2C adrenergic receptor (Homo sapiens); assay: Displacement of [3H]RX821002 from human Alpha-2C adrenergic receptor expressed in CHO cells after 30 mins by scintillation counting; assay type: cell-based
Sequence (P18825 whole entry): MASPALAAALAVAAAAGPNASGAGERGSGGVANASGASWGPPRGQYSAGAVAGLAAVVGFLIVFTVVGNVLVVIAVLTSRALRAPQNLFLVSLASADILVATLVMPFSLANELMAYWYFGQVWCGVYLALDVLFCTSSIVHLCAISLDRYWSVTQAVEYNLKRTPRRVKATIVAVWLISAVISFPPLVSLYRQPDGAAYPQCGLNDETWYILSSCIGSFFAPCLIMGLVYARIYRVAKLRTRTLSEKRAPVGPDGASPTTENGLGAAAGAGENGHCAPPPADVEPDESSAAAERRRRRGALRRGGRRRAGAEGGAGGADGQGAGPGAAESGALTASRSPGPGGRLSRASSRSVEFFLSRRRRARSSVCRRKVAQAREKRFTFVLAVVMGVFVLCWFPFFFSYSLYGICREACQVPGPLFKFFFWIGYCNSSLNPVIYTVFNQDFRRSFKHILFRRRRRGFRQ
pKi: −log10 of the molar value.
measured-parameter: pKi

compound	pKi
c1ccc([C@@H]2CO[C@H](C3=NCCN3)CO2)cc1 (relative stereo)	< 5.00
c1ccc([C@@H]2COC[C@@H](C3=NCCN3)O2)cc1 (relative stereo)	< 5.00
c1ccc(C2COC(C3=NCCN3)CO2)cc1 (racemic)	< 5.00
c1ccc(C2(c3ccccc3)COC(C3=NCCN3)CO2)cc1 (stereo not drawn)	5.13
c1ccc([C@@H]2CO[C@@H](C3=NCCN3)CO2)cc1	< 5.00
c1ccc(C2(c3ccccc3)COCC(C3=NCCN3)O2)cc1 (stereo not drawn)	5.21

Problem: # lookup: pKi of c1ccc([C@H]2COC[C@@H](C3=NCCN3)O2)cc1 (relative stereo)
Result: < 5.00

Problem: Would you kindly repeat that for c1ccc([C@H]2CO[C@H](C3=NCCN3)CO2)cc1 ?
Result: < 5.00
